compounds and their reported fold change of Putrescine concentration
Tested on: Klebsiella aerogenes DSM 30053
ASSAY_TEXT: fold change of Putrescine concentration vs plate DMSO controls (fold change (ratio)); higher = more amine produced, active = hit call of the paper (significant change in both replicates, either direction)
RUN_PARAMETERS: incubation time: 27 h, anaerobic, 37 °C
Where a name gives a salt, the structure may show the parent alone.
QUANTITY_KIND: fold change of Putrescine concentration

• CC1=C(/C=C/C(C)=C/C=C/C(C)=C/C(=O)O)C(C)(C)CCC1 [Retinoic acid] (20 µM) = 1.02
• NC[C@H]1O[C@H](O[C@H]2[C@H](O[C@@H]3O[C@H](CO)[C@@H](O)[C@H]3O)[C@@H](O)[C@H](N)C[C@@H]2N)[C@H](N)[C@@H](O)[C@@H]1O [Ribostamycin sulfate salt] (20 µM) = 0.994
• CCCNCC(O)COc1ccccc1C(=O)CCc1ccccc1 (stereo not drawn) [Propafenone hydrochloride] (20 µM) = 0.99
• O=C(NCC(O)CO)c1c(I)c(C(=O)NCC(O)CO)c(I)c(N(CCO)C(=O)CO)c1I (stereo not drawn) [Ioversol] (20 µM) = 0.975
• CC(=O)c1cc2cccc(OCC(O)CNC(C)C)c2o1 (stereo not drawn) [Befunolol] (20 µM) = 0.972
• C[C@H]1[C@@H](O)O[C@@H]2O[C@@]3(C)CC[C@H]4[C@H](C)CC[C@@H]1[C@@]24OO3 [Artenimol] (20 µM) = 1.01
• CCOc1ccc2nc(S(N)(=O)=O)sc2c1 [Ethoxzolamide] (20 µM) = 0.997
• CCN[C@H]1C[C@H](C)S(=O)(=O)c2sc(S(N)(=O)=O)cc21 [Dorzolamide hydrochloride] (20 µM) = 0.977

---

Tested on: Clostridium sporogenes DSM 1664
ASSAY_TEXT: growth (OD595) fold change vs plate DMSO controls (fold change (ratio)); higher = more growth
RUN_PARAMETERS: incubation time: 27 h, anaerobic, 37 °C
compounds and their reported growth
QUANTITY_KIND: growth

- CC(=O)Nc1ccc(CC(=O)O)cc1 [Actarit] (20 µM): 0.864
- Nc1nc(=O)c2nc(CNc3ccc(C(=O)N[C@@H](CCC(=O)O)C(=O)O)cc3)cnc2[nH]1 [Folic acid] (20 µM): 0.939
- CN(C)c1nc(N(C)C)nc(N(C)C)n1 [Altretamine] (20 µM): 0.899
- CC[N+](CC)(CC(=O)Nc1c(C)cccc1C)Cc1ccccc1 [Denatonium benzoate] (20 µM): 0.911
- NS(=O)(=O)c1cc(C2(O)NC(=O)c3ccccc32)ccc1Cl (stereo not given) [Chlorthalidone] (20 µM): 0.955

---

Tested on: Ruminococcus gnavus DSM 108212
ASSAY_TEXT: fold change of Tryptamine concentration vs plate DMSO controls (fold change (ratio)); higher = more amine produced, active = hit call of the paper (significant change in both replicates, either direction);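 for the amine columns active = adjusted P below 0.05 in both replicates with a change the same way and a mean fold change under 0.8 or over 1.25; inactive = the rest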
RUN_PARAMETERS: incubation time: 27 h, anaerobic, 37 °C
Where a name gives a salt, the structure may show the parent alone.
Classes used: TRUE for active, FALSE for inactive

• NCCc1ccc(O)c(O)c1 [Dopamine hydrochloride] (20 µM) = FALSE
• NC(=O)N1c2ccccc2C=Cc2ccccc21 [Carbamazepine] (20 µM) = FALSE
• CN(C)CCN(Cc1cccs1)c1ccccn1 [Methapyrilene hydrochloride] (20 µM) = FALSE
• CC(=O)O[C@@]12CO[C@@H]1C[C@H](O)[C@@]1(C)C(=O)[C@H](O)C3=C(C)[C@@H](OC(=O)[C@H](O)[C@@H](NC(=O)OC(C)(C)C)c4ccccc4)C[C@@](O)([C@@H](OC(=O)c4ccccc4)[C@H]21)C3(C)C [Docetaxel] (20 µM) = FALSE
• OC[C@@H](O)[C@@H](O)[C@@H](O)[C@@H](O)CO [Allitol] (50 µM) = FALSE
• S=c1[nH]cnc2nc[nH]c12 [Mercaptopurine] (20 µM) = FALSE
• CC1(C)S[C@@H]2[C@H](NC(=O)[C@H](N)c3ccc(O)cc3)C(=O)N2[C@H]1C(=O)O [Amoxicillin] (20 µM) = TRUE
